Taken from ChEMBL document CHEMBL1143671.

- TEST_PROTOCOL: Inhibition of Bacillus subtilis NAD synthetase by fluorescence based assay
Listing of recorded pIC50 by entry.
pIC50 is a log-scale quantity: -log10 of the concentration expressed in molar.

COMPOUND_STRUCTURE | REPORTED_VALUE
C[N+](C)(C)[C@@H](Cc1c[nH]c2ccccc12)C(=O)OCCCCCCCCOc1ccc(OCc2ccccc2)cc1 | 4.72
C[N+](C)(C)[C@@H](Cc1ccccc1)C(=O)NCCCCCCCCOc1ccc(OCc2ccccc2)cc1 | 4.40
N=C(N)N[C@H](COCCCCCCCCOc1ccc(OCc2ccccc2)cc1)c1ccccc1 | 4.96
N=C(N)N[C@H](COCCCCCCCCOc1ccc(OCc2ccccc2)cc1)Cc1ccccc1 | 4.96
N=C(N)N[C@H](C(=O)NCCCCCCCCOc1ccc(OCc2ccccc2)cc1)c1ccccc1 | 4.72

Ask: What pIC50 value was documented for this molecule, C[N+](C)(C)[C@H](COCCCCCCCCOc1ccc(OCc2ccccc2)cc1)Cc1ccccc1 ?
Result: 4.68

Ask: // next record C[N+](C)(C)[C@@H](Cc1ccc(O)cc1)C(=O)OCCCCCCCCOc1ccc(OCc2ccccc2)cc1
Result: 4.28

Ask: Next entry: C[N+](C)(C)[C@H](COCCCCCCCCOc1ccc(OCc2ccccc2)cc1)c1ccccc1
Result: 4.42

Ask: Again, but for C[N+](C)(C)c1ccc(CC(=O)OCCCCCCCCOc2ccc(OCc3ccccc3)cc2)cc1
Result: 4.39

Ask: Ok, now C[N+](C)(C)[C@@H](Cc1ccccc1)C(=O)OCCCCCCCCOc1ccc(OCc2ccccc2)cc1
Result: 4.66

Ask: Similarly, C[N+](C)(C)[C@H](C(=O)NCCCCCCCCOc1ccc(OCc2ccccc2)cc1)c1ccccc1 ?
Result: 4.35

Ask: And then N=C(N)N[C@@H](Cc1ccccc1)C(=O)NCCCCCCCCOc1ccc(OCc2ccccc2)cc1 , what is it?
Result: 4.92
